Give measured cytotoxicity at 70.5 h for each item. Keep answers brief.
- Experimental details: Human HepG2 cell viability assay in 384 well format
- Type: toxicity, cell-based
- Design: dose 125 nL, time 70.5 hour; concentration not given beside the values
- Condition set: HepG2 cells, read-out: Inhibition
Output spec: scalar in %, unitless text.

Task item: # input compound: "O=C(Cc1ccc2c(c1)CCCC2)NCCNc1cnccn1" ; wanted: its cytotoxicity at 70.5 h
Reply: -11.7

Task item: # input compound: CN(CC1Cc2ccccc2CN1C)c1nc(N)nc2c1CCNCC2 (stereo unspecified) ; wanted: its cytotoxicity at 70.5 h
Reply: -9.32

Task item: # input compound: N#CC1COCCN1C(=O)c1ccc2cc[nH]c2c1 (stereo unspecified) ; wanted: its cytotoxicity at 70.5 h
Reply: -9.25

Task item: # input compound: "O=C([C@@H]1C[C@@H]2CCN(C3CCOCC3)C[C@H]2O1)N1CCOCC1" ; wanted: its cytotoxicity at 70.5 h
Reply: -0.695

Task item: # input compound: c1ccc(CCN2CCC(OCC3CCCCO3)CC2)nc1 (stereo unspecified) ; wanted: its cytotoxicity at 70.5 h
Reply: 5.3

Task item: # input compound: "COCCC(=O)N1CCC2(CCN(Cc3cccc(F)c3)CC2)CC1" ; wanted: its cytotoxicity at 70.5 h
Reply: -5.26

Task item: # input compound: "Cc1ccccc1CN(Cc1ccc(S(C)(=O)=O)cc1)CC(C)C" ; wanted: its cytotoxicity at 70.5 h
Reply: 6.09

Task item: # input compound: NC(=O)C1CN(C(=O)Nc2ccccc2-c2cccs2)CCO1 (stereo unspecified) ; wanted: its cytotoxicity at 70.5 h
Reply: -1.53

Task item: # input compound: "c1cc(-c2noc([C@@H]3Cc4nc[nH]c4CN3)n2)ccn1" ; wanted: its cytotoxicity at 70.5 h
Reply: 1.06

Task item: # input compound: "CNC(=O)c1noc(Cn2ncc3ccccc3c2=O)n1" ; wanted: its cytotoxicity at 70.5 h
Reply: 0.589

Task item: # input compound: "CCNC(=O)C1CCN(Cn2nc(-c3ccccc3)oc2=O)CC1" ; wanted: its cytotoxicity at 70.5 h
Reply: -1.22
